- Test system: MS2 coat protein
- experimental_protocol: apparent KD of MS2 coat protein; higher = weaker reporter binding
- condition_set: Eterna round: R107; input ligand: tryptophan 2.4 mM
observation_type: apparent KD of MS2 coat protein (nM)
Respond with the bare value in nM.

Answered cases to consult:
• ACGACAUGAGGAUCACCCAUGUAAGGUGAUACCAGACGAAGUAAUGUCCCUUGGCAGCACACGCAUAGUUGCGAUUAUUGUACGA [JR_SSTheophyA_Sub007] = 572
• CAUAUAUAUUGAAGGAGCGUCGAAAAUGGGUAAACAUGAGGAUCACCCAUGUAAAGGGAACGACAGGUAGGUCGCAAUAUAUAUG [AstromonsSSArgB#4] = 146

Let us move to another entry and its apparent KD of MS2 coat protein.
Please report apparent KD of MS2 coat protein for the following sequence: AAAAUCCUAUCUGAGGAUCACCCAGGUGAAGGAGCGCCCGAAAGGGCAGGUAGGUCGCACCUGAGGAUCACCCUGGUAAACCUAA [ArgEX 21 #DoubleMS2 #OpenEnded] 65.4

* * *

Parameter: apparent KD of K4 kissing-loop reporter. Scope: all listed entries.
- Tested on: K4 kissing-loop RNA reporter;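 further: bound reporter read as fluorescence of individual clusters on recovered sequencing chips by microscopy, with normalized cluster intensities fitted with a binding model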
- experimental_protocol: apparent KD of K4 kissing-loop reporter; higher = weaker reporter binding
- condition_set: Eterna round: R107; input ligand: none
Please provide the amount together with its unit, number first.

Answered cases to consult:
• GUUUGGCGGGCGGCCGCCACUCGGACGAGUCGCAGUGAUGUUGUGGUUUGCCAGUCGUCUUCAUCGAGGACCGGGUUUGUCGGGC [Exclusion Tryptophan B GF 19] = 0.6 µM
• CCGACUGCAGGAAGGAGCGGCGGUUGGAGUGAUGUUCCGGGUAGUGAUGUUACCAAGAUCCGCCAGGUAGGUCGCCUGUUGCUCG [Same State Arginine B GF11] = 0.129 µM
• AGGUUUUGAUUAGGAUAUGCACUGAGGAGGAGAAUAUAGUGAUGUUAUAUAAGAGGAAGGAGUAGAGUAGAAGGGAUUGAGGUUU [SSFMNB.R] = 0.199 µM
• GCUAUGGUAGGAAGGAGCGCUUAUUUAUUUUUAAGAGUGAUGUUCGUUAGUAGAUAGUUAAAGCAGGUAGGUCGCCUACUAUAGC [Arginine B K4 15] = 0.171 µM

Provide K4 kissing-loop RNA reporter apparent KD of K4 kissing-loop reporter reading for `UGAUAGGACAGAAGGAGCGGUAGUGAUGUUGCCAAAAGAAUAAGGUGUCAAAAGACACCCUACCAGGUAGGUCGCUGUCCUAUCU` . 0.423 µM

Provide K4 kissing-loop RNA reporter apparent KD of K4 kissing-loop reporter reading for UGGCGUUGAACCGCCGAAUCGCUGUGAGAAGGAGCGGUAAAAUUGCCAGGUAGGUCGCUCACAGCUUCACAGUGAUGUUGUGGAA [Enxeisen] . 0.408 µM

Provide K4 kissing-loop RNA reporter apparent KD of K4 kissing-loop reporter reading for UGUACCGAGUCAGGAUAUCAAAAUAAUUGGAGUGAUGUUCCAAAUACGACUGACAAAGUCGGUCGAUGAGAAGGGACUUGGUACU [FmnBS 11 #SwitchBubble #StaticStem] . 0.122 µM

* * *

Parameter: apparent KD of MS2 coat protein. Scope: all listed entries.
- Test system: MS2 coat protein
- experimental_protocol: apparent KD of MS2 coat protein; designed switch direction (-1 OFF switch, 1 ON switch): -1; higher = weaker reporter binding
- condition_set: input ligand: FMN 200 uM

• UGCAAGCUUUAAAGAUCCUACAUGAGGAUCACCCAUGUGCUCGUCUUAUAACGUACUGUGACGAAAGUCACGGUACG [JL TOV1 3.96] (Eterna round: R97, puzzle: Sensor, turn-off variant 1) = 324 nM
• UAGGAACGAGGAUAUACACCUGCAAGUGGUGUGGGUACACCACAUGAGGAUCACCCAUGUAGAAGGCGUACCAA [Lelebi] (Eterna round: R97, puzzle: Exclusion 2) = 57.3 nM
• UGAUCUAGCGGAGGAUAUACAUGAGGAUCACCCAUGUAGUAGUGAGUACCGUAGUGCUCACUUGUGUAGAAGGCCGCUAGAUCU [JL ENG2 3.60] (Eterna round: R96, puzzle: Exclusion NG 2) = 17.9 nM
• GUACAUUUAGGAUAUACGGCAGCCAAUGCAAGGGUUCUAUAACAUGAGGAUCACCCAUGUAGAAGGAGAGGGCG [Eternabot (L2) Solution 21] (Eterna round: R97, puzzle: Exclusion 2) = 70.8 nM

Let us move to another entry and its apparent KD of MS2 coat protein.
Please report apparent KD of MS2 coat protein for the following sequence: AUCAUGCAGUAGGAUAUCGAUCCACAAUAUGAACGAGAAGGGCUGACAUGAGGAUCACCCAUGUGCGUCCGAAG [Becebe] (Eterna round: R97, puzzle: Exclusion 6) 16.7 nM
